- Test system: Sonic hedgehog protein (Shh)
- EXPERIMENT_DESCRIPTION: small-molecule binders of Shh protein, primary screen, biochemical, small-molecule microarray, 635/667 nm fluorescence (AID 1151);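 note: Shh protein binding to compounds spotted on small-molecule microarray slides; score combines spot fluorescence intensity with signal-to-noise across triplicate slides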
- DETAILS: small-molecule microarray binding, 635 nm fluorescence; higher = more signal
Class key for composite z-score values: one: < 0.2; two: ≥ 0.2 and < 0.7; three: ≥ 0.7

Example entries and their recorded answers appear below.
{"columns": ["COMPOUND", "LABEL"],
 "data": [
  ["O=c1n(-c2ccccc2)c(=O)n2n1CC(COc1ccccc1)=C([C@H](O)CCc1ccccc1)[C@@H]2CO", "two"],
  ["NC(=O)NCC#Cc1ccc2c(c1)[C@]1(C(=O)N2)[C@H](C(=O)O)[C@H]2C(=O)O[C@H](c3ccccc3)[C@H](c3ccccc3)N2[C@@H]1c1ccc(OCCO)cc1", "one"],
  ["CCCCCCc1nc(C2CC2)cc2c1[Si](C(C)C)(C(C)C)OC2", "one"]
]}

IN: Any idea which band "COc1ccc([Si](C)(C)[C@@H]2[C@@H](CC(=O)N(CCO)Cc3ccccc3)O[C@]3(C(=O)N(Cc4cccc(N5C(=O)c6cccc7cccc5c67)c4)c4ccccc43)[C@H]2C)cc1" is in?
OUT: three

IN: Any idea which band CCCCN1CC=CC23O[C@@H]4/C=C\CCC(C)OC(=O)C4[C@H]2C(=O)N(C(CO)C(C)C)[C@@H]3C1=O (stereo not given in full) is in?
OUT: three

IN: Any idea which band "COCCOC(=O)N1C(=O)[C@@]2(c3cc(C#CC4=CCCCC4)ccc31)[C@H](c1ccc(OCCO)cc1)N1[C@H](c3ccccc3)[C@H](c3ccccc3)OC(=O)[C@H]1[C@@H]2C(=O)NC[C@H](O)c1ccccc1" is in?
OUT: three

IN: Any idea which band O=C1NC(=O)C2C1C=CC(C(O)c1ccco1)N2Nc1ccccn1 (stereo not given) is in?
OUT: two

IN: Any idea which band "CCCCCCc1nc(-c2cc(C)c(OC)c(C)c2)c(C)c2c1[Si](C(C)C)(C(C)C)OC2" is in?
OUT: one

IN: Any idea which band C=CC1c2cc(O)c(OC)cc2CCN1Cc1cc2c(cc1Br)OCO2 (stereo not given) is in?
OUT: two

IN: Any idea which band "Cc1ccc(S[C@]2(C(=O)NCC(F)(F)F)CC(=O)N(Cc3ccccc3C(F)(F)F)[C@@H]2c2ccc(CO)cc2I)cc1" is in?
OUT: one

IN: Any idea which band "CC1=C([C@H](O)CCc2ccccc2)[C@H](CO)[C@@H]2C(=O)N(C)C(=O)[C@@H]2C1" is in?
OUT: two

IN: Any idea which band "CCCC[C@@H](O)C1=C(COc2ccccc2)C[C@H]2C(=O)N(C)C(=O)[C@H]2[C@H]1CO" is in?
OUT: two

IN: Any idea which band "COC(=O)[C@@]1(Cc2ccc(F)cc2)[C@H]2c3cc(C(=O)N(C)C)n(Cc4cc(F)cc5c4OCOC5)c3C[C@H]2CN1C(=O)c1ccccc1" is in?
OUT: two

IN: Any idea which band CCOc1cc(C(O)C2C=CC3C(=O)N(C)C(=O)C3N2Nc2ccccc2)ccc1O (stereo not given) is in?
OUT: one

IN: Any idea which band "CCOC(=O)c1ccc(NC(=O)O[C@H]2[C@H](OC(=O)Nc3ccc4c(c3)OCO4)[C@H](OC(=O)Nc3ccc4c(c3)OCO4)[C@@H](OC)O[C@@H]2CO)cc1" is in?
OUT: three

---

- SUBJECT_OF_TEST: Albumin (Bos taurus)
- EXPERIMENT_DESCRIPTION: bovine serum albumin binders on microarray, profiling panel, artefact control for SMM control protein annotation, biochemical, small-molecule microarray, Alexa647 label, 635/667 nm fluorescence (AID 1118);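 note: score merges 667 nm emission intensity and signal-to-noise per printed compound spot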
- DETAILS: BSA-A647 binding, fluorescence 635 nm, higher = more signal
Readings of composite z-score for the listed compounds
# print the numeric value only

As a guide, the following entries are already answered.
{"columns": ["COMPOUND", "READOUT", "RECORDED_RESULT"],
 "data": [
  ["C[C@H]1NC(=O)[C@@]23C(=O)N[C@@H](Cc4ccccc4)C2[C@H](C)[C@@]2(C)O[C@H]2C3/C=C/C/C=C\\CNC(=O)[C@H](Cc2ccccc2)NC1=O (stereo partly drawn)", "composite z-score", -0.474],
  ["COc1ccc([Si](C)(C)[C@H]2[C@H](CCn3cc([C@H](O)c4ccccc4)nn3)O[C@@]3(C(=O)N(Cc4ccc(N5C(=O)c6cccc7cccc5c67)cc4)c4ccccc43)[C@@H]2C)cc1", "composite z-score", -0.601]
]}

API: the following record is the query input.
IN: Lab request: please report composite z-score under test system Albumin (Bos taurus) for "C=C(C)c1cc2c(c(CCCCCC)n1)[Si](C(C)C)(C(C)C)OC2"
OUT: -0.923

---

- SUBJECT_OF_TEST: Epidermal growth factor receptor (Homo sapiens) (UniProt P00533)
- Sequence (P00533 whole entry, looked up): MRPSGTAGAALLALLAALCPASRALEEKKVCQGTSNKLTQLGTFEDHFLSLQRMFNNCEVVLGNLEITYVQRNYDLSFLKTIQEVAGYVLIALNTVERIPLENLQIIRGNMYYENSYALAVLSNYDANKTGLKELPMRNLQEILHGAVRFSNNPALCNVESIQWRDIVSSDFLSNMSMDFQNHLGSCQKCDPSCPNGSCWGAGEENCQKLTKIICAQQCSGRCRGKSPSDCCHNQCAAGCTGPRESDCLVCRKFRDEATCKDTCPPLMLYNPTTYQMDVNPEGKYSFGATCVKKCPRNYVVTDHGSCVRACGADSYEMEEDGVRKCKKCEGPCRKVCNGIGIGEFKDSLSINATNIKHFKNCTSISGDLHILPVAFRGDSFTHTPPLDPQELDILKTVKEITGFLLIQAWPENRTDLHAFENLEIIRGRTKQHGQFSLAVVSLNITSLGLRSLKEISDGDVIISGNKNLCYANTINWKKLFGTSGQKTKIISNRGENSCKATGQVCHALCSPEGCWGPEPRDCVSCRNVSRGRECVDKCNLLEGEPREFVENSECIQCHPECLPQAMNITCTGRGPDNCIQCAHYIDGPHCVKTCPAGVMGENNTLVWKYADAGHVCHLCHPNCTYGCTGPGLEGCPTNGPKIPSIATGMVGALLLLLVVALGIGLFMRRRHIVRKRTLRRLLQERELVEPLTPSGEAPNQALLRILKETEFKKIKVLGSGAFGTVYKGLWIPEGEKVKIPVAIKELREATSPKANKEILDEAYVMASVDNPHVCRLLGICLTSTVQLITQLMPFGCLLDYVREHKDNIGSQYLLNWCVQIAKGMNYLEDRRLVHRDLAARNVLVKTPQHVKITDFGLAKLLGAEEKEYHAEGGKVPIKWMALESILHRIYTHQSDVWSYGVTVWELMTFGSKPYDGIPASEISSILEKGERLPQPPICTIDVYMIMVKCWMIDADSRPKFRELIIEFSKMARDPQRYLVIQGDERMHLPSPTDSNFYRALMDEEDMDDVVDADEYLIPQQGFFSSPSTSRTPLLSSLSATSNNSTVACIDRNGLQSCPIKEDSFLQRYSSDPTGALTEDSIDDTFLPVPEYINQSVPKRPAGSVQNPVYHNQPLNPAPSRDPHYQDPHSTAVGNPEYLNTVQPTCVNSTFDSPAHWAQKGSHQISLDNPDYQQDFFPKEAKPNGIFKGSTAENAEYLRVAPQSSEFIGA
- EXPERIMENT_DESCRIPTION: EGFR binders on small-molecule microarrays, primary screen, biochemical, small-molecule microarray, 635 nm fluorescence (AID 1104);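 note: score merges 667 nm emission intensity with spot signal to noise over triplicate slides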
- DETAILS: EGFR binding, higher = more signal
Mark No for composite z-score values under 0.2, and Yes for everything at or above.

{"columns": ["MOLECULE", "LABEL"],
 "data": [
  ["COc1ccc(NC(=O)O[C@H]2[C@H](OC(=O)Nc3ccccc3)[C@@H](OC(=O)Nc3ccccc3)[C@@H](OC)O[C@@H]2CO)cc1", "No"]
]}

IN: Can CN1C(=O)C2C=CC(C(O)c3cccc4ccccc34)N(N3CCCCC3)C2C1=O (stereo unspecified) be said to have composite z-score at or above 0.2?
OUT: Yes

IN: Can "O=C(CS)NCCCCCCNC(=O)[C@H]1C[C@H]2C(=O)N[C@@H](Cc3ccccc3)C(=O)N2[C@H]1c1ccc(O)cc1" be said to have composite z-score at or above 0.2?
OUT: No

IN: Can "CC(C)[Si](C#CCCCC#N)(O[C@H](c1ccccc1)c1cn([C@H](CO)Cc2ccccc2)nn1)C(C)C" be said to have composite z-score at or above 0.2?
OUT: Yes

IN: Can "CCCNC(=O)[C@@]1(c2ccc([N+](=O)[O-])cc2)CC(=O)N(C2CCCCC2)[C@@H]1c1ccc(CO)cc1" be said to have composite z-score at or above 0.2?
OUT: Yes

---

- EXPERIMENT_DESCRIPTION: small-molecule binders of probe aInhba, primary screen, biochemical, small-molecule microarray, 635/667 nm fluorescence (AID 1148);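 note: score merges 667nm spot fluorescence with signal-to-noise for antibody binding to printed compounds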
- DETAILS: higher = more signal
Readings of composite z-score for the listed compounds

As a guide, the following entries are already answered.
{"columns": ["COMPOUND", "composite z-score"],
 "data": [
  ["O=C(NCCCCCNC(=O)/C(Cc1ccccc1)=N/O)OCc1ccccc1", -0.245],
  ["COCCOC(=O)N1C(=O)[C@@]2(c3cc(C#Cc4ccc(OC)cc4)ccc31)[C@H](C(=O)Nc1nc3ccccc3s1)[C@H]1C(=O)O[C@H](c3ccccc3)[C@H](c3ccccc3)N1[C@@H]2c1ccc(OCCO)cc1", 0.246],
  ["COC(=O)[C@@]1(Cc2ccc(OC)cc2)[C@H]2c3cc(C(=O)N(C)C)n(C[C@H](O)CO)c3C[C@H]2CN1C(=O)c1ccccc1", 0.116]
]}

IN: Given the entry Cc1cc(C)c(C(O)C2C=CC3C(=O)NC(=O)C3N2Nc2ccc(Cl)cc2Cl)c(C)c1 (configuration not stated) , report its measured composite z-score.
OUT: 0.249

IN: Given the entry "CN(C)CCCNC(=O)[C@@]1(c2ccc([N+](=O)[O-])cc2)CC(=O)N(CC23CC4CC(CC(C4)C2)C3)[C@@H]1c1ccc(CO)cc1I" , report its measured composite z-score.
OUT: 0.206

IN: Given the entry CC(CO)N1C(=O)[C@@H]2[C@H]3C(=O)OCC=C[C@H]3OC23C=CCN(C(C)(C)C)C(=O)[C@@H]13 (some centres not stated) , report its measured composite z-score.
OUT: -0.154

IN: Given the entry "C=C[C@@H](COC(C)=O)N(C(=O)OC(C)(C)C)S(=O)(=O)c1ccc(Br)cc1" , report its measured composite z-score.
OUT: -0.231

---

- Test system: Human papillomavirus type 1a E7 protein (residues 1-88)
- EXPERIMENT_DESCRIPTION: HPV1a E7 small-molecule binders, primary screen, biochemical, small-molecule microarray, residues 1-88, 635 nm (AID 1129)
- DETAILS: small-molecule microarray binding, fluorescence 635 nm; higher = more signal
READOUT: composite z-score

As a guide, the following entries are already answered.
{"columns": ["COMPOUND", "composite z-score"],
 "data": [
  ["C=C(/C(=C/C[C@H](OC(C)=O)c1ccccc1OCCO)c1cc(C(=O)OC)ccc1OC)C(C)C", 0.278],
  ["C=C(C)C1CCC(C(O)C2C=CC3C(=O)N(C)C(=O)C3N2N2CCCCC2)CC1 (centres undefined)", 1.24],
  ["CCCCCCCCCCC(O)C1C=CC2C(=O)N(C)C(=O)C2N1Nc1ccc([N+](=O)[O-])cc1[N+](=O)[O-] (centres undefined)", 1.21]
]}

API: the following record is the query input.
IN: Given the entry "CCOC(=O)C[C@H]1[C@H](OC(=O)c2cc3ccccc3oc2=O)[C@@H](NC(=O)c2ccc(-c3ccccc3)cc2)c2cc(OCCCO)ccc2N1C(=O)c1ccccc1" , report its measured composite z-score.
OUT: 1.2
